biological target: recombinant PRL-2 (Homo sapiens); construct: 6xHis (N, cleaved yes); made in house; host or cells: E. coli One Shot BL21 Star; test: In vitro phosphatase assay (DiFMUP hydrolysis), PRL-2; type: biochemical; conditions: FDA-approved drug screen; activity compared to DMSO;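 further: PRL-2 activity read as DiFMUP hydrolysis after 20 min at room temperature with drug, enzyme first pre-reduced at 4 °C for 20 min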
Sequence (Q12974 whole entry): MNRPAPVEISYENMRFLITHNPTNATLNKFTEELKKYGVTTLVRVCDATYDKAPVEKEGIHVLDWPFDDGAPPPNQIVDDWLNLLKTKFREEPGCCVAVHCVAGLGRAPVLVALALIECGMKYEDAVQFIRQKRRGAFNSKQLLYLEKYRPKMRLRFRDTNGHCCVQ
Structures can show the parent of a compound that is named as a salt.
MEASUREMENT NAME: % Phosphatase Activity (compared to DMSO) PRL-2 (%)
Give the value in % but do not write % after it.

Before answering, review these 5 worked examples.
* Cc1cccc(N(C)C(=S)Oc2ccc3ccccc3c2)c1 [Tolnaftate] | 114
* Cc1nnc(NS(=O)(=O)c2ccc(N)cc2)s1 | 99
* CC1(C)O[C@@H]2[C@@H](CO[C@@]3(COS(N)(=O)=O)OC(C)(C)O[C@@H]23)O1 [Topiramate] | 122
* CC/C(=C(\c1ccccc1)c1ccc(OCCN(C)C)cc1)c1ccccc1 [Tamoxifen Citrate] | 91
* CS(=O)(=O)c1ccc(C(=O)Nc2ccc(Cl)c(-c3ccccn3)c2)c(Cl)c1 | 99

In: Report measured % Phosphatase Activity (compared to DMSO) PRL-2; entry is O=C(O[C@H]1C[C@H]2CC[C@@H](C1)[N+]21CCCC1)C(O)(c1ccccc1)c1ccccc1 [Trospium chloride]
Out: 109

In: Supply reported % Phosphatase Activity (compared to DMSO) PRL-2 belonging to this compound: CCCS(=O)(=O)Nc1ccc(F)c(C(=O)c2c[nH]c3ncc(-c4ccc(Cl)cc4)cc23)c1F
Out: 89

In: // fetch % Phosphatase Activity (compared to DMSO) PRL-2 given entry CC(C)Nc1cc(-c2c[nH]c(C(=O)N[C@H](CO)c3cccc(Cl)c3)c2)c(Cl)cn1
Out: 90

In: Note down % Phosphatase Activity (compared to DMSO) PRL-2 recorded for [H]/N=C(/N)NS(=O)(=O)c1ccc(N)cc1
Out: 90

In: Could you please provide reported % Phosphatase Activity (compared to DMSO) PRL-2 for CC(C)[C@H](N)C(=O)OCCOCn1cnc2c(=O)nc(N)[nH]c21.Cl [Valaciclovir HCl] ? Thanks!
Out: 102
